Cited source for all entries: patent US20170022287A1

assay system: T1, CRD2-4
T1 construct: also called fragmented human CD137-Fc fusion protein CRD2-4
T1 sequence (chain, as listed by the source limits assumed): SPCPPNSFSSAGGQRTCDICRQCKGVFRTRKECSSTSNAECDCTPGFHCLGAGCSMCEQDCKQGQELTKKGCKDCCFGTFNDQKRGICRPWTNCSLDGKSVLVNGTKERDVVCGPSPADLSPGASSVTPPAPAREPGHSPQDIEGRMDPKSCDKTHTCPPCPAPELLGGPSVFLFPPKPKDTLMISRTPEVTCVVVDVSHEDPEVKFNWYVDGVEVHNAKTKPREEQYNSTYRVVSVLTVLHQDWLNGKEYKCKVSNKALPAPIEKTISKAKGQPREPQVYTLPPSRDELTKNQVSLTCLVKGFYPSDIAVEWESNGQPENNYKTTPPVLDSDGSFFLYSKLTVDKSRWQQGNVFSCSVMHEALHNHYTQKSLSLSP
method notes: ELISA, coated CD137-Fc protein 2 µg/mL, antibody 10 or 5 µg/mL; absorbance 620 nm divided by that of the uncoated well
value type: Ratio with respect to Non-Coating
Respond using a number only.

binder	Ratio with respect to Non-Coating
R4 (antibody, V domains shown, Naive library clone; Fab on phage in the phage ELISA) VH: EVQLVQSGAEVKKPGASVKVSCKASGYTFSGYYMHWVRQAPGQGLEWMGWINPNSGDTNYAQNFQGRVTMTRDTSISTAYMELSRLRSDDTAVYYCARDGTGYSSSPDYWGQGTPVTVSS VL: QSALTQPASVSGSPGQSITISCTGTSSDVGGYNYVSWYQQHPGKAPKLMIYDVSNRPSGVSNRFSGSKSGNTASLTISGLQAEDEADYYCSSYTSSSTRWVFGGGTKLTVL	1.3
R1 (antibody, V domains shown, Naive library clone; Fab on phage in the phage ELISA) VH: EVQLVQSGAEVKKPGASVKVSCKASGYTFTSYYTHWVRQAPGQGLEWMGIINPSGGSTSYAQKFQGRVTMTRDTSTSTVYMELSSLRSEDTAVYYCARGAPEYSSSSDYWGQGTMVTVSS VL: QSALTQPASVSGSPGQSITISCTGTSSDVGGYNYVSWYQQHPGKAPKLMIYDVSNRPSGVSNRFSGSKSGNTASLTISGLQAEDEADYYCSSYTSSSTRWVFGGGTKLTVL	1.4
R3 (antibody, V domains shown, Naive library clone; Fab on phage in the phage ELISA) VH: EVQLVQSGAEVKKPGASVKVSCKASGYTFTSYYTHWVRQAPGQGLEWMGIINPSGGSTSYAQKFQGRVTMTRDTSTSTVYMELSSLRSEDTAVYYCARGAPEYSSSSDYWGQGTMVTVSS VL: QSALTQPASVSGSPGQSITISCTGTSSDVGGYNFVSWYQQHPGKAPKLMIYDVSKRPSGVSTRFSGSKSGNTASLTISGLQAEDEADYYCNSYTTSSTRWMFGGGTKVTVL	1.4

R7 (antibody, V domains shown, Synthetic library clone; Fab on phage in the phage ELISA) VH: QVQLLESGGGLVQPGGSLRLSCAASGFTFSSYAMSWVRQAPGKGLEWVSAISGSGGSTYYADSVKGRFTISRDNSKNTLYLQMNSLRAEDTAVYYCARDRAMYHPSFNYWGQGTLVTVSS VL: DIQMTQSPSSLSASVGDRVTITCRASQSISSYLNWYQQKPGKAPKLLIYAASSLQSGVPSRFSGSGSGTDFTLTISSLQPEDFATYYCQQFNSYPLTFGGGTKVEIK has a reported Ratio with respect to Non-Coating of 4.9

R2 (antibody, V domains shown, Naive library clone; Fab on phage in the phage ELISA) VH: EVQLQESGPGLVKPSETLSLTCTVSGGSISSSSYYWGWIRQPPGKGLEWIGSIHYTGSTYYNPSLKSRVTISVDTSKNQFSLKLSSVTAADTAVYYCARLNPSIAARPGAFDIWGQGTMVTVSS VL: QSVLTQPPSVSAAPGQKVTISCSGSSSNIANNFVSWFQQLPGTAPKLLIYDNNKRPSGIPDRFSGSKSGTSATLGITGLQTGDEADYYCGTWDRSLSAGVFGGGTKVTVL has a reported Ratio with respect to Non-Coating of 0.7

B (antibody, human IgG1, kappa, V domains shown, also called Control B) VH: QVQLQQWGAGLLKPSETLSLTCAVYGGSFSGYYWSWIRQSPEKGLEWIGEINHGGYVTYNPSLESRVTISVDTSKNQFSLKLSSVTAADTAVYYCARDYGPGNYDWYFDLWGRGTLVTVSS VL: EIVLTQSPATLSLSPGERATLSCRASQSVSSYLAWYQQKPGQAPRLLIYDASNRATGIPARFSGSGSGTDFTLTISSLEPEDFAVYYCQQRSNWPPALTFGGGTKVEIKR has a reported Ratio with respect to Non-Coating of 2
